system: Klebsiella aerogenes; assay: Inhibition of AcrAB-TolC efflux pump in Enterobacter aerogenes ATCC 13048 assessed as effect on nalidixic acid MIC at 62.5 uM relative to control
Active and inactive are the calls of the source. No cut-off for these calls is given here.
observation type: inhibition

INSERT INTO assay_data (smiles_code, observation_type, test_value) VALUES
  ('CCOC(=O)N1CCN(CCCCCCCCN2C(=O)N(CC(=O)OC)C(=O)C2(c2ccccc2)c2ccccc2)CC1', 'inhibition', 'inactive'),
  ('CCOC(=O)N1CCN(CCCCCN2C(=O)N(CC(=O)OC)C(=O)C2(c2ccccc2)c2ccccc2)CC1', 'inhibition', 'inactive'),
  ('O=C(O)CN1C(=O)N(CCCCCN2CCCN3CCCN=C23)C(c2ccccc2)(c2ccccc2)C1=O', 'inhibition', 'inactive'),
  ('O=C(O)CN1C(=O)N(CCCN2CCCN3CCCN=C32)C(c2ccccc2)(c2ccccc2)C1=O', 'inhibition', 'inactive'),
  ('COC(=O)CN1C(=O)N(CCCCCCCCN2CCNCC2)C(c2ccccc2)(c2ccccc2)C1=O', 'inhibition', 'inactive'),
  ('CCOC(=O)N1CCN(CCCCN2C(=O)N(CC(=O)OC)C(=O)C2(c2ccccc2)c2ccccc2)CC1', 'inhibition', 'inactive'),
  ('O=C(O)CN1C(=O)N(CCCCCCN2CCCN3CCCN=C23)C(c2ccccc2)(c2ccccc2)C1=O', 'inhibition', 'inactive'),
  ('NCCCN1C(=O)N(CC(=O)O)C(=O)C1(c1ccccc1)c1ccccc1', 'inhibition', 'inactive'),
  ('NCCCCN1C(=O)N(CC(=O)O)C(=O)C1(c1ccccc1)c1ccccc1', 'inhibition', 'inactive');

---

tested on: Klebsiella aerogenes; assay: Inhibition of AcrAB-TolC efflux pump in Enterobacter aerogenes CM-64 assessed as effect on nalidixic acid MIC at 62.5 uM relative to control
Activity calls are given as the source filed them. No cut-off for these calls is given here.
observation type: inhibition

INSERT INTO measurements (smiles_code, system, observation_type, test_value) VALUES
  ('O=C(O)CN1C(=O)N(CCCCCCN2CCCN3CCCN=C23)C(c2ccccc2)(c2ccccc2)C1=O', 'Klebsiella aerogenes', 'inhibition', 'inactive'),
  ('NCCCCCCN1C(=O)N(CC(=O)O)C(=O)C1(c1ccccc1)c1ccccc1', 'Klebsiella aerogenes', 'inhibition', 'inactive'),
  ('O=C(O)CN1C(=O)N(CCCCCN2CCCN3CCCN=C23)C(c2ccccc2)(c2ccccc2)C1=O', 'Klebsiella aerogenes', 'inhibition', 'inactive'),
  ('O=C(O)CN1C(=O)N(CCCN2CCCN3CCCN=C32)C(c2ccccc2)(c2ccccc2)C1=O', 'Klebsiella aerogenes', 'inhibition', 'inactive'),
  ('O=C(O)CN1C(=O)N(CCCCN2CCCN3CCCN=C23)C(c2ccccc2)(c2ccccc2)C1=O', 'Klebsiella aerogenes', 'inhibition', 'inactive'),
  ('CCOC(=O)N1CCN(CCCCCCN2C(=O)N(CC(=O)OC)C(=O)C2(c2ccccc2)c2ccccc2)CC1', 'Klebsiella aerogenes', 'inhibition', 'inactive'),
  ('NCCCN1C(=O)N(CC(=O)O)C(=O)C1(c1ccccc1)c1ccccc1', 'Klebsiella aerogenes', 'inhibition', 'inactive'),
  ('CCOC(=O)N1CCN(CCCCCCCCN2C(=O)N(CC(=O)OC)C(=O)C2(c2ccccc2)c2ccccc2)CC1', 'Klebsiella aerogenes', 'inhibition', 'inactive'),
  ('CCOC(=O)N1CCN(CCCCN2C(=O)N(CC(=O)OC)C(=O)C2(c2ccccc2)c2ccccc2)CC1', 'Klebsiella aerogenes', 'inhibition', 'inactive');

---

test system: Klebsiella aerogenes; assay: Antibacterial activity against Enterobacter aerogenes ATCC 13048 after 18 hrs by two fold serial dilution method; assay type: functional; settings: ATCC 13048, 18 h
Threshold 1000 µM: MIC strictly smaller gives satisfied, otherwise not satisfied.

INSERT INTO measurements (molecule, group) VALUES
  ('O=C(O)CN1C(=O)N(CCCCN2CCCN3CCCN=C23)C(c2ccccc2)(c2ccccc2)C1=O', 'not satisfied'),
  ('COc1ccccc1N1CCN(CC(O)CN2C(=O)N(CC(=O)O)C(=O)C2(c2ccccc2)c2ccccc2)CC1 (configuration not stated)', 'satisfied'),
  ('COC(=O)CN1C(=O)N(CC(O)CNC(C)C)C(c2ccccc2)(c2ccccc2)C1=O (configuration not stated)', 'satisfied'),
  ('CCOC(=O)N1CCN(CCCCCN2C(=O)N(CC(=O)OC)C(=O)C2(c2ccccc2)c2ccccc2)CC1', 'not satisfied'),
  ('COC(=O)CN1C(=O)N(CC(CN2CCN(c3ccccc3)CC2)OC(C)=O)C(c2ccccc2)(c2ccccc2)C1=O (configuration not stated)', 'satisfied'),
  ('COC(=O)CN1C(=O)N(CCCCCCCCN2CCNCC2)C(c2ccccc2)(c2ccccc2)C1=O', 'not satisfied'),
  ('O=C(O)CN1C(=O)N(CCCCCCN2CCCN3CCCN=C23)C(c2ccccc2)(c2ccccc2)C1=O', 'not satisfied'),
  ('COc1ccccc1N1CCN(CCCCN2C(=O)N(CC(=O)O)C(=O)C2(c2ccccc2)c2ccccc2)CC1', 'satisfied'),
  ('O=C(O)CN1C(=O)N(CCCN2CCCN3CCCN=C32)C(c2ccccc2)(c2ccccc2)C1=O', 'not satisfied'),
  ('COC(=O)CN1C(=O)N(CC(O)CN2CCN(c3ccccc3)CC2)C(c2ccccc2)(c2ccccc2)C1=O (configuration not stated)', 'not satisfied');
